Reference source: patent US8735414B2

// reported melting point for each item listed

Worked cases, melting point given:
- smiles-notation: "Cc1cc2c(C#N)c(-c3ccc(S(=O)(=O)N[C@@H](C)C(F)(F)F)cn3)n(C3CCCC3)c2cc1Cl"
  melting point: "186 to 187 °C"
- smiles-notation: "C[C@H](NS(=O)(=O)c1cnc(-c2c(C#N)c3ccc(OC(F)F)cc3n2C2CCCCC2)nc1)C(F)(F)F"
  melting point: "187 to 189 °C"
- smiles-notation: "Cc1ccc2c(c1)c(C#N)c(-c1ncc(S(=O)(=O)N[C@@H](C)C3CC3)cn1)n2CC1CC1"
  melting point: "174 to 178 °C"

Now for a further compound.
Identify measured melting point associated with C[C@@H](NS(=O)(=O)c1ccc(-c2c(C#N)c3ccc(OC(F)(F)F)cc3n2C2CCC2)nc1)C(F)(F)F
171 to 177 °C

----------
// reported melting point for each item listed

Worked cases, melting point given:
- smiles-notation: "CC(C)(C)S(=O)(=O)Nc1ccc(-c2c(C(N)=O)c3c(F)cc(C4CC4)cc3n2C2CCCCC2)cn1"
  melting point: "290 to 294 °C"
- smiles-notation: "Cc1cc2c(cc1F)c(C(N)=O)c(-c1ccc(S(=O)(=O)NC(C)(C)C)cn1)n2C1CCCCC1"
  melting point: "274.5 to 275.6 °C"
- smiles-notation: "CCc1cc(OC)c2c(C#N)c(-c3ccc(S(=O)(=O)N[C@@H](C)C(F)(F)F)cn3)n(C3CCC3)c2c1"
  melting point: "187 to 188 °C"

Identify measured melting point associated with C[C@H](NS(=O)(=O)c1ccc(-c2c(C#N)c3ccc(OC(F)F)cc3n2C2CCC2)nc1)C1CC1
163 to 168 °C

----------
quantity-kind: melting point

- compound: "Cc1cc2c(cc1Br)c(C#N)c(-c1ccc(S(=O)(=O)N[C@H](C)C(F)(F)F)cn1)n2C1CCCC1 [compound 692]"
  melting point: "226.5 to 227 °C"
- compound: "COc1ccc2c(C#N)c(-c3ncc(S(=O)(=O)NC(CF)CF)cn3)n(C3CCC3)c2c1 [compound 230]"
  melting point: "217 to 219 °C"
- compound: "CCc1cc2c(cc1F)c(C(N)=O)c(-c1ccc(S(=O)(=O)N[C@@H](C)C(F)(F)F)cn1)n2-c1ccc(F)cc1 [compound 1019]"
  melting point: "210 to 217 °C"
- compound: "N#Cc1c(-c2ncc(S(=O)(=O)NC(CF)CF)cn2)n(C2CCCCC2)c2ccc(Cl)cc12 [compound 463]"
  melting point: "251 to 253 °C"
- compound: "N#Cc1c(-c2ccc(S(=O)(=O)NC(CF)CF)cn2)n(C2CCCCC2)c2cc(C3CC3)ccc12 [compound 92]"
  melting point: "193 to 198 °C"

Identify measured melting point associated with C[C@@H](NS(=O)(=O)c1ccc(-c2c(C#N)c3ccc(F)cc3n2C2CCC2)nc1)C(F)(F)F [compound 215]
178 to 180 °C

Identify measured melting point associated with Cc1nc(NS(=O)(=O)C(C)(C)C)ccc1-c1c(C(N)=O)c2cc(F)c(OC(F)F)cc2n1[C@@H](C)C1CC1 [compound 1096]
147 to 151 °C

----------
// reported melting point for each item listed

Worked cases, melting point given:
- smiles-notation: "N#Cc1c(-c2ccc(S(=O)(=O)NC3(C(F)(F)F)CCC3)cn2)n(C2CCCC2)c2cc(OC(F)F)ccc12"
  melting point: "172 to 176 °C"
- smiles-notation: "Cc1cc2c(cc1F)c(C#N)c(-c1ccc(S(=O)(=O)N[C@@H](C)C(F)(F)F)cn1)n2-c1ccc(F)nc1"
  melting point: "246.8 to 252.7 °C"
- smiles-notation: "Cc1ccc2c(C#N)c(-c3ncc(S(=O)(=O)NC(CF)CF)cn3)n(C(C)C)c2c1"
  melting point: "213 to 215 °C"
- smiles-notation: "CC1(NS(=O)(=O)c2ccc(-c3c(C#N)c4cc(Cl)c(OC(F)F)cc4n3C3CCC3)nc2)CC1"
  melting point: "218 to 226 °C"
- smiles-notation: "CC(C)n1c(-c2ccc(S(=O)(=O)N[C@@H](C)C(F)(F)F)cn2)c(C#N)c2cc(F)c(OC(F)F)cc21"
  melting point: "184 to 188 °C"

Identify measured melting point associated with C[C@H](NS(=O)(=O)c1ccc(-c2c(C#N)c3ccc(C#N)cc3n2C2CCCC2)nc1)C(F)(F)F
203 to 205 °C

Identify measured melting point associated with C[C@H](NS(=O)(=O)c1ccc(-c2c(C#N)c3ccc(Cl)cc3n2C2CCC2)nc1)C(F)(F)F
198 to 204 °C

Identify measured melting point associated with CC(C)NS(=O)(=O)c1cnc(-c2c(C#N)c3ccc(F)cc3n2C2CCCC2)nc1
216 to 217 °C

Identify measured melting point associated with Cc1ccc2c(c1)c(C#N)c(-c1ccc(S(=O)(=O)N[C@@H](C)C(F)(F)F)cn1)n2-c1ccccn1
165 to 167 °C

Identify measured melting point associated with CCc1cc(F)c2c(C(N)=O)c(-c3ccc(NS(=O)(=O)C(C)(C)C)nc3)n(-c3ccccc3)c2c1
288 to 294 °C

Identify measured melting point associated with CNC(=O)c1c(-c2ccc(S(=O)(=O)NC(C)(C)C)cn2)n(C2CCCC2)c2cc(C)c(F)cc12
248 to 250 °C

Identify measured melting point associated with Cc1cc2c(cc1F)c(C#N)c(-c1ccc(S(=O)(=O)NC(C)(C)C)cn1)n2-c1ccccc1
200.6 to 202.4 °C

Identify measured melting point associated with CCc1cc2c(cc1F)c(C#N)c(-c1ccc(S(=O)(=O)N[C@@H](C)C(F)(F)F)cn1)n2-c1cncc(Cl)c1
107 to 109 °C

Identify measured melting point associated with CCc1cc2c(cc1F)c(C#N)c(-c1ccc(S(=O)(=O)N[C@@H](C)C(F)(F)F)cn1)n2C1CCCC1
201 to 202 °C

Identify measured melting point associated with COc1ccc(-n2c(-c3ccc(S(=O)(=O)NC(CF)CF)cn3)c(C#N)c3cc(F)ccc32)cc1
198 to 200 °C

Identify measured melting point associated with Cc1ccc2c(C#N)c(-c3ccc(S(=O)(=O)NC(C)(C)C(F)(F)F)cn3)n(-c3ncccn3)c2c1
202 to 205 °C
